The origin of these recorded values is ChEMBL document CHEMBL1614629.

Test: Clearance in rat after iv administration
Assay type: ADME, organism-based
Details: in vivo
result_type: log10 of clearance (log10 of the value in mL/min/kg)
Answers are given as log10 of clearance in mL/min/kg.

[[record]]
compound = "NC(=O)c1cc[n+](COC[n+]2ccccc2/C=N/O)cc1"
result_type = "log10 of clearance"
measurement = 0.99

[[record]]
compound = "O=C(O)Cc1ccccc1Nc1c(Cl)cccc1Cl"
result_type = "log10 of clearance"
measurement = 0.97

[[record]]
compound = "O=C1NC(=O)C(c2ccccc2)(c2ccccc2)N1"
result_type = "log10 of clearance"
measurement = 0.87

[[record]]
compound = "NC1(C(=O)O)CC1"
result_type = "log10 of clearance"
measurement = 0.51


Please list log10 of clearance recorded for the compound COCCc1ccc(OCC(O)CNC(C)C)cc1 (centres undefined)
2.27

Please list log10 of clearance recorded for the compound `CO[C@@]1(NC(=O)CSCC#N)C(=O)N2C(C(=O)O)=C(CSc3nnnn3C)CS[C@@H]21`
1.60
